- experimental-system: T1, recombinant human CSF-1R (form not stated) (human, UniProt P07333 20-512, limits assumed)
- T1 construct: for the ELISA no species is stated; also called recombinant CSF-1R; recombinant CSF-1R protein
- T1 sequence (P07333 20-512 limits assumed): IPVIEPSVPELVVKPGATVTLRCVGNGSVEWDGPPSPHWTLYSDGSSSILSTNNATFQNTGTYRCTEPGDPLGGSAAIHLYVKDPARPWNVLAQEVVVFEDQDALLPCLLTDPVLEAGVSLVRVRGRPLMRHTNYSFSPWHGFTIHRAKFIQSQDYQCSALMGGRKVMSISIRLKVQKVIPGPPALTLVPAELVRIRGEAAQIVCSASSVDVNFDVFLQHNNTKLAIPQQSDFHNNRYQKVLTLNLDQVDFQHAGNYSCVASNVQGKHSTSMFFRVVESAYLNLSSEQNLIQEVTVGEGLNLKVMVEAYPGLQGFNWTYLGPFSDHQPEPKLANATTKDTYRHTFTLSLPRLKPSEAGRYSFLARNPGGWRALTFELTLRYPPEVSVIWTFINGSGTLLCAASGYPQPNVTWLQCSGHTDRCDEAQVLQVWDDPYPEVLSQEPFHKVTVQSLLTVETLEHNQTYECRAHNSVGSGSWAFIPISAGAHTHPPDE
- experiment-description: BIAcore, humanisation stage, crude cell supernatant
readout-name: kon (M⁻¹ s⁻¹)

969gH2gL2 (antibody, human IgG4 S228P, kappa, name in Kabat numbering, V domains shown, Humanised IgG4 (S241P)/kappa; positions are Kabat) VH: EVTLKESGPALVKPTQTLTLTCTFSGFSLTTYGMGVGWIRQPPGKALEWLANIWWDDDKYYNPSLKNRLTISKDTSKNQVVLTMTNMDPVDTATYYCARIGPIKYPTAPYRYFDFWGQGTMVTVSS VL: DIQMTQSPSSLSASVGDRVTITCLASEDIYDNLAWYQQKPGKAPKLLIYYASSLQDGVPSRFSGSGSGTDYTLTISSLQPEDFATYFCLQDSEYPWTFGGGTKVEIKR
1.78e+06
969gH1gL3 (antibody, human IgG4 S228P, kappa, name in Kabat numbering, V domains shown, Humanised IgG4 (S241P)/kappa; positions are Kabat) VH: EVTLKESGPALVKPTQTLTLTCTFSGFSLTTYGMGVGWIRQPPGKALEWLANIWWDDDKYYNPSLKNRLTISKDTSKNQAVLTMTNMDPVDTATYYCARIGPIKYPTAPYRYFDFWGQGTMVTVSS VL: DIQMTQSPSSLSASVGDRVTITCLASEDIYDNLAWYQKKPGKAPKLLIYYASSLQDGVPSRFSGSGSGTDFTLTISSLQPEDFATYFCLQDSEYPWTFGGGTKVEIKR
1.8e+06
969gH1gL6 (antibody, human IgG4 S228P, kappa, name in Kabat numbering, V domains shown, Humanised IgG4 (S241P)/kappa; positions are Kabat) VH: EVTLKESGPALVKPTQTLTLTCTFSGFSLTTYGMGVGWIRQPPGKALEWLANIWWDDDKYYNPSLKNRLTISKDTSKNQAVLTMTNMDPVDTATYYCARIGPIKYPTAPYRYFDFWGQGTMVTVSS VL: DIQMTQSPSSLSASVGDRVTITCLASEDIYDNLAWYQKKPGKAPKLLIYYASSLQDGVPSRFSGSGSGTDFTLTISSLQPEDFATYYCLQDSEYPWTFGGGTKVEIKR
1.15e+06
